Please provide measured melting point for the entries that follow.
Counter-ions that a name gives are not always drawn.

Some compounds with known melting point results, for comparison:
INSERT INTO measurements (compound, attribute_measured, result) VALUES
  ('C[C@@H](N)[C@H]1Cc2ccc3c(c2O1)CCC3 (relative stereo) (as salt: hydrochloride)', 'melting point', '> 250 °C'),
  ('COc1cc2c(c3c1C1CCC3CC1)OC(CN)C2 (single isomer, unassigned; (+)) (as salt: hydrochloride) [Example 20]', 'melting point', '> 220 °C'),
  ('NCC1Cc2cc(Cl)c3ccccc3c2O1 (racemic) (as salt: hydrochloride)', 'melting point', '269 to 271 °C');

Below is a list of compounds. For each, state its recorded melting point.
1. NCC1Cc2c(Cl)cc3c(c2O1)CCC3 (racemic) (as salt: hydrochloride) [Example 25]
2. NCC1Cc2ccc3ccccc3c2O1 (racemic) (as salt: hydrochloride)
3. NCC1Cc2ccc3c(c2O1)CCC3 (racemic) (as salt: hydrochloride)
4. NCC1Cc2cc(Cl)c3c(c2O1)CCC3 (single isomer, unassigned; (-)) (as salt: hydrobromid) [Example 30]

output:
1: 251 to 254 °C; 2: > 250 °C (dec.); 3: > 230 °C (dec.); 4: > 330 °C
